# Protocol notes: yeast display, Sf9 membrane polyspecificity reagent, FACS + sequencing; frameworks hold sequencing errors
Readout kind: polyreactivity (PSR sort gate)

Before answering, review these 8 worked examples.
{"Input sequence": "QVQLVESGGGLVQAGGSLRLSCAASGRTFWKYAMGWYRQAPGKERELVAAISSSGGNTYYADSVKGRFTISRDNAKNSVYLQMNSLKPEDTAVYYCAARLPRGAYYYWGQGTQVTVSS", "polyreactivity (PSR sort gate)": "high polyreactivity"}
{"Input sequence": "QVHLVESGGGLVQAGGSLRLSCAASGITFRYYAMGWYRQAPGKERELVAVISTSGGSTYYADSVKGRFTISRDNAKNTVYLQMNSLKPEDTAVYYCAVVWPYSERYYYWGQGTQVTVSS", "polyreactivity (PSR sort gate)": "high polyreactivity"}
{"Input sequence": "QVQLVESGGGLVQAGGSLRLSCAASGFTFDIYAMGWYRQAPGKERELVATISRSGGTTYYADSVKGRFTISRDNAKNTVYLQMNSLKPEDTAVYYCNAGRYYIGGYWGQGTQVTVSS", "polyreactivity (PSR sort gate)": "high polyreactivity"}
{"Input sequence": "QVQLVESGGGLVQAGGSLRLSCAASGSTFVYAMAWYSQAPGKERELVAAITTGDSTYYADSVKGRFTISRDNAKNTVYLQMNSLKPEDTAVYYCAAQWYTRYGEYGYWGQGTQVTVSS", "polyreactivity (PSR sort gate)": "low polyreactivity"}
{"Input sequence": "QVQLVESGGGLVQAGGSLRLSCAASGRTLYTNAMGWYRQAPGKERELVAAITSGASTNYADSVKGRFTISRDNAKNSVYLQMNSLKPEDTSVYYCASRTYHLWNARRYDYWGQGTQVTVSS", "polyreactivity (PSR sort gate)": "low polyreactivity"}
{"Input sequence": "QVQLVESGGGLVQAGGSLRLSCAASGSIFTSNAMGWYRQAPVKERELVASISSDGSTKYADSVKGRFTISRDNAKNTVYLQMNSLKPEDTAVYYCAADLGYWVYVEYDYWGQGTQVTVSS", "polyreactivity (PSR sort gate)": "low polyreactivity"}
{"Input sequence": "QVQLVESGGGLVQAGGSLRLSCAASGRILWWYAMGWYRQAPRKEREFFAAITTSGGSTYYADSVKGRFTISRDNAKNTVYLQMTSLKPEDNAVYYCAADLFVRNLVYTYDYDYWGQGTQVTVSA", "polyreactivity (PSR sort gate)": "high polyreactivity"}
{"Input sequence": "QVQLVESGGGLVQAGGSLRLSCAASGRIFTGNTMGWYRQAPGKERELVATINSNGGSTYYADSVKGRFTISRDNAKNTVYLQMNSLKPEDTAVYYCAVVRNYVSRYRFYYWGQGTQVTVSS", "polyreactivity (PSR sort gate)": "high polyreactivity"}

Give measured polyreactivity (PSR sort gate) for every item shown.
1. QVQLVESGGGLVQAGGSLRLSCAASGLTFYYYTMGWYRQAPGKERELVAAITSGGSTYYADSVKGRFTISRDNAKNTVYLQMNSLKPEDTAVYDCAAVPSRYGRYRYYYWGQGTQVTVSS
2. QVQLVESGGGLVQAGGSLRLSCAASGGISHRYAMGWYRQAPGKERELVAAITASGTSTNYADSVKGRFTISRDNAKNTVYLQMNSLKPEDTAVYYCAARYYSFFYPYYYWGQGTQVTVSS
3. QVQLVESAGGLVQAGGSLRLSSAASAFTFYSNAMGWYRHAPGKEREFVAAGSTYYADSVKGRFTISRDNAKNTVYLQMNSLKPEDTAVYYCAADSYDVSRRYEYEYWGEGTQVTVSS

high polyreactivity
high polyreactivity
low polyreactivity
